Biological target: SDCBP PDZ 1 (Homo sapiens, UniProt O00560)
Construct: made in house; host or cells: E. coli
Sequence (O00560 114-193 limits assumed): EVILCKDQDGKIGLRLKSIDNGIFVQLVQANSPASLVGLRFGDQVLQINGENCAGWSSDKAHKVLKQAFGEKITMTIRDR
Test: Holdup assay, SDCBP-1
Type: binding
Settings: PDZ domain SDCBP-1
*1 amine or outer side, *2 acyl side, *3 side chain or, on linkers, in order; H or OH if unused. Where a SMILES comes first, the peptide text is derived from it. The star is where a group is joined. X1 = O=C(CCCC[C@@H]1SC[C@@H]2NC(=O)N[C@@H]21)NCCCOCCOCCOCCCN*; Suc = O=C(CCC(=O)[*:2])[*:1]
So I've got a bunch of compounds here, and I need their BI values.
Note: the reply should be a number with no unit written.

Test item CC[C@H](C)[C@H](NC(=O)[C@H](CCC(N)=O)NC(=O)[C@@H](NC(=O)[C@H](Cc1c[nH]cn1)NC(=O)[C@H](CCC(N)=O)NC(=O)[C@H](CC(=O)O)NC(=O)[C@H](CCC(=O)O)NC(=O)[C@H](CC(=O)O)NC(=O)CCC(=O)NCCCOCCOCCOCCCNC(=O)CCCC[C@@H]1SC[C@@H]2NC(=O)N[C@@H]21)[C@@H](C)O)C(=O)N[C@H](C(=O)N[C@@H](CCCNC(=N)N)C(=O)N[C@H](C(=O)O)C(C)C)[C@@H](C)O [PTEN_KR] ({X1-Suc}-DEDQHTQITRV-OH) ; SDCBP PDZ 1 (Homo sapiens, UniProt O00560); reported BI was -0.006

Test item CC[C@H](C)[C@H](NC(=O)[C@H](CCC(N)=O)NC(=O)[C@@H](NC(=O)[C@H](Cc1c[nH]cn1)NC(=O)[C@H](CCC(N)=O)NC(=O)[C@H](CC(=O)O)NC(=O)[C@H](CCC(=O)O)NC(=O)[C@H](CC(=O)O)NC(=O)[C@H](Cc1ccccc1)NC(=O)[C@@H]1CCCN1C(=O)CCC(=O)NCCCOCCOCCOCCCNC(=O)CCCC[C@@H]1SC[C@@H]2NC(=O)N[C@@H]21)[C@@H](C)O)C(=O)N[C@H](C(=O)N[C@@H](CCCCN)C(=O)N[C@H](C(=O)O)C(C)C)[C@@H](C)O [PTEN_13] ({X1-Suc}-PFDEDQHTQITKV-OH) ; SDCBP PDZ 1 (Homo sapiens, UniProt O00560); reported BI was 0.009

Test item CC[C@H](C)[C@H](NC(=O)[C@H](CCC(N)=O)NC(=O)[C@@H](NC(=O)[C@H](Cc1c[nH]cn1)NC(=O)[C@H](CCC(N)=O)NC(=O)[C@H](CC(=O)O)NC(=O)[C@H](CCC(=O)O)NC(=O)[C@H](CC(=O)O)NC(=O)CCC(=O)NCCCOCCOCCOCCCNC(=O)CCCC[C@@H]1SC[C@@H]2NC(=O)N[C@@H]21)[C@@H](C)O)C(=O)N[C@H](C(=O)N[C@@H](CCCCN)C(=O)N[C@H](C(=O)O)C(C)C)[C@@H](C)O ; SDCBP PDZ 1 (Homo sapiens, UniProt O00560); reported BI was -0.001

Test item CC[C@H](C)[C@H](NC(=O)[C@H](CCC(N)=O)NC(=O)[C@@H](NC(=O)[C@H](Cc1c[nH]cn1)NC(=O)[C@H](CCC(N)=O)NC(=O)[C@H](CC(=O)O)NC(=O)[C@H](CCC(=O)O)NC(=O)[C@H](CC(=O)O)NC(=O)CCC(=O)NCCCOCCOCCOCCCNC(=O)CCCC[C@@H]1SC[C@@H]2NC(=O)N[C@@H]21)[C@@H](C)O)C(=O)N[C@H](C(=O)N[C@@H](CCCCNC(C)=O)C(=O)N[C@H](C(=O)O)C(C)C)[C@@H](C)O ; SDCBP PDZ 1 (Homo sapiens, UniProt O00560); reported BI was -0.057

----------
So I've got a bunch of compounds here, and I need their BI values.
Test system: 266 human PDZ domains (PDZome)
Assay: Holdup assay (chromatographic retention, PDZome-binding profile, BI)
Set-up: key: binding intensity: 0.00 = no binding, 1.00 = maximal binding
Details: PDZ domain MPP6-1
*1 amine or outer side, *2 acyl side, *3 side chain or, on linkers, in order; H or OH if unused. Where a SMILES comes first, the peptide text is derived from it. The star is where a group is joined. X1 = O=C(CCCC[C@@H]1SC[C@@H]2NC(=O)N[C@@H]21)NCCCOCCOCCOCCCN*; Suc = O=C(CCC(=O)[*:2])[*:1]
Note: the reply should be a number with no unit written.

Sample CC[C@H](C)[C@H](NC(=O)[C@H](CCC(N)=O)NC(=O)[C@@H](NC(=O)[C@H](Cc1c[nH]cn1)NC(=O)[C@H](CCC(N)=O)NC(=O)[C@H](CC(=O)O)NC(=O)[C@H](CCC(=O)O)NC(=O)[C@H](CC(=O)O)NC(=O)[C@H](Cc1ccccc1)NC(=O)[C@@H]1CCCN1C(=O)CCC(=O)NCCCOCCOCCOCCCNC(=O)CCCC[C@@H]1SC[C@@H]2NC(=O)N[C@@H]21)[C@@H](C)O)C(=O)N[C@H](C(=O)N[C@@H](CCCCN)C(=O)N[C@H](C(=O)O)C(C)C)[C@@H](C)O [PTEN_13] ({X1-Suc}-PFDEDQHTQITKV-OH) ; BI observed: -0.068

Sample CC[C@H](C)[C@H](NC(=O)[C@H](CCC(N)=O)NC(=O)[C@@H](NC(=O)[C@H](Cc1c[nH]cn1)NC(=O)[C@H](CCC(N)=O)NC(=O)[C@H](CC(=O)O)NC(=O)[C@H](CCC(=O)O)NC(=O)[C@H](CC(=O)O)NC(=O)CCC(=O)NCCCOCCOCCOCCCNC(=O)CCCC[C@@H]1SC[C@@H]2NC(=O)N[C@@H]21)[C@@H](C)O)C(=O)N[C@H](C(=O)N[C@@H](CCCNC(=N)N)C(=O)N[C@H](C(=O)O)C(C)C)[C@@H](C)O [PTEN_KR] ({X1-Suc}-DEDQHTQITRV-OH) ; BI observed: -0.058

Sample CC[C@H](C)[C@H](NC(=O)[C@H](CCC(N)=O)NC(=O)[C@@H](NC(=O)[C@H](Cc1c[nH]cn1)NC(=O)[C@H](CCC(N)=O)NC(=O)[C@H](CC(=O)O)NC(=O)[C@H](CCC(=O)O)NC(=O)[C@H](CC(=O)O)NC(=O)CCC(=O)NCCCOCCOCCOCCCNC(=O)CCCC[C@@H]1SC[C@@H]2NC(=O)N[C@@H]21)[C@@H](C)O)C(=O)N[C@H](C(=O)N[C@@H](CCCCNC(C)=O)C(=O)N[C@H](C(=O)O)C(C)C)[C@@H](C)O [PTEN_Ac] ; BI observed: -0.03

Sample CC[C@H](C)[C@H](NC(=O)[C@H](CCC(N)=O)NC(=O)[C@@H](NC(=O)[C@H](Cc1c[nH]cn1)NC(=O)[C@H](CCC(N)=O)NC(=O)[C@H](CC(=O)O)NC(=O)[C@H](CCC(=O)O)NC(=O)[C@H](CC(=O)O)NC(=O)CCC(=O)NCCCOCCOCCOCCCNC(=O)CCCC[C@@H]1SC[C@@H]2NC(=O)N[C@@H]21)[C@@H](C)O)C(=O)N[C@H](C(=O)N[C@@H](CCCCN)C(=O)N[C@H](C(=O)O)C(C)C)[C@@H](C)O [PTEN_11] ; BI observed: -0.062

----------
Tested on: 266 human PDZ domains (PDZome)
Assay: Holdup assay (chromatographic retention, PDZome-binding profile, BI)
Set-up: key: binding intensity: 0.00 = no binding, 1.00 = maximal binding
Settings: PDZ domain SIPA1L2-1
*1 amine or outer side, *2 acyl side, *3 side chain or, on linkers, in order; H or OH if unused. Where a SMILES comes first, the peptide text is derived from it. The star is where a group is joined. X1 = O=C(CCCC[C@@H]1SC[C@@H]2NC(=O)N[C@@H]21)NCCCOCCOCCOCCCN*; Suc = O=C(CCC(=O)[*:2])[*:1]
experimentalEndpoint: BI

Sample CC[C@H](C)[C@H](NC(=O)[C@H](CCC(N)=O)NC(=O)[C@@H](NC(=O)[C@H](Cc1c[nH]cn1)NC(=O)[C@H](CCC(N)=O)NC(=O)[C@H](CC(=O)O)NC(=O)[C@H](CCC(=O)O)NC(=O)[C@H](CC(=O)O)NC(=O)[C@H](Cc1ccccc1)NC(=O)[C@@H]1CCCN1C(=O)CCC(=O)NCCCOCCOCCOCCCNC(=O)CCCC[C@@H]1SC[C@@H]2NC(=O)N[C@@H]21)[C@@H](C)O)C(=O)N[C@H](C(=O)N[C@@H](CCCCN)C(=O)N[C@H](C(=O)O)C(C)C)[C@@H](C)O [PTEN_13] ({X1-Suc}-PFDEDQHTQITKV-OH) ; BI observed: -0.04
